Target: human GPR40 (Homo sapiens)
Construct: expressed in transfected cells; host or cells: HEK cells stably expressing the aequorin reporter
Sequence (O14842 whole entry): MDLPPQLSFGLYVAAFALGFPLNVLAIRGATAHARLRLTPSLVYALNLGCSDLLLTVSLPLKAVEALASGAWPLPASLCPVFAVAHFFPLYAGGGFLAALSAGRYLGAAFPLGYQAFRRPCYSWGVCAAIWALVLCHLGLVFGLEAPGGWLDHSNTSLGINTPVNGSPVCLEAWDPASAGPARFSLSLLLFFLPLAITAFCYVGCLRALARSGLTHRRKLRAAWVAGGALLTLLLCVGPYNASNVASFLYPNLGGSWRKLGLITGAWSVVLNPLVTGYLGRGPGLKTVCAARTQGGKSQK
Experiment: Inositol Phosphate Turnover (IP1) Assay 2
Type: cell-based
Conditions: HEK cells stably expressing human GPR40; compound acoustically transferred; 60 minutes at 37 degrees
measured-quantity: EC50 (nM)

In the examples that follow, each entry is paired with its recorded EC50.
1) COc1cc(-c2ccc([C@@H]3Cc4cc([C@H](C5CC5)[C@H](C)C(=O)O)ccc4CO3)c(F)c2)ccn1 [Example 38A]    4.2
2) COc1ccc(F)c(-c2ccc([C@H]3Cc4cc([C@H](C5CC5)[C@H](C)C(=O)O)ccc4CO3)cc2)c1    0.5

A. COc1cc(-c2ccc(C3CCc4ccc(C(C5CC5)C(C)C(=O)O)cc4C3)c(F)c2)ccn1 (single isomer, unassigned) [Example 37]
B. COc1cc(-c2ccc(C3COc4ccc([C@H](C5CC5)[C@H](C)C(=O)O)cc4C3)c(F)c2)ccn1 (single isomer, unassigned) [Example 17]
C. C[C@H](C(=O)O)[C@H](c1ccc2c(c1)CC(C1CCN(c3ncccc3C(F)(F)F)CC1)OC2)C1CC1 (stereo partly drawn)
D. COc1cc(-c2ccc(C3CCc4ccc(C(C5CC5)C(C)C(=O)O)cc4C3)c(F)c2)ccn1 (single isomer, unassigned) [Example 33]
[in] hey, can you rank those compounds up there by EC50? biggest number first please Submit the labels in the order that the ranking request calls for.
[out] C, B, D, A
